- Target Or System: DRB5*0101 (Homo sapiens, UniProt P01903+Q30154)
- Method Notes: biochemical
- Measurement Conditions: Binding affinity DRB5 *0101
Measurement Label: IC50

{"columns": ["Molecule", "IC50"],
 "data": [
  ["CSCC[C@H](NC(=O)[C@@H](NC(=O)[C@H](CCCCN)NC(=O)[C@@H](NC(=O)[C@H](C)NC(=O)[C@H](CC(=O)O)NC(=O)[C@@H](N)[C@@H](C)O)C(C)C)C(C)C)C(=O)N[C@@H](CC(=O)O)C(=O)N[C@@H](CC(C)C)C(=O)N1CCC[C@H]1C(=O)N[C@H](C(=O)N[C@@H](CCC(N)=O)C(=O)N[C@@H](CCC(=O)O)C(=O)N1CCC[C@H]1C(=O)N[C@@H](C)C(=O)O)[C@@H](C)O [Peptide 68.0074]", "> 20 µM"],
  ["CC[C@H](C)[C@H](NC(=O)[C@H](CO)NC(=O)[C@H](CC(C)C)NC(=O)[C@@H](NC(=O)[C@H](CC(C)C)NC(=O)[C@@H](N)CC(=O)O)C(C)C)C(=O)N[C@@H](C)C(=O)N[C@@H](CC(C)C)C(=O)N[C@@H](CO)C(=O)N[C@H](C(=O)NCC(=O)N[C@@H](CS)C(=O)N[C@H](C(=O)NCC(=O)N[C@@H](C)C(=O)O)[C@@H](C)O)C(C)C [Peptide 68.0002]", "> 20 µM"]
]}

Now examine the next entry.
Q: Please look at this molecule and report its IC50: CSCC[C@H](NC(=O)[C@H](CC(C)C)NC(=O)[C@@H]1CCCN1C(=O)[C@@H](NC(=O)[C@H](CS)NC(=O)[C@H](CC(=O)O)NC(=O)[C@@H](NC(=O)[C@H](CCCNC(=N)N)NC(=O)[C@H](CC(C)C)NC(=O)[C@@H](NC(=O)[C@H](Cc1ccc(O)cc1)NC(=O)[C@@H](N)CC(N)=O)[C@@H](C)O)C(C)C)[C@@H](C)O)C(=O)N[C@@H](Cc1ccc(O)cc1)C(=O)N[C@@H](CO)C(=O)N[C@@H](CC(C)C)C(=O)O [Peptide 68.0112]
Result: > 20 µM

###

- Target Or System: DRB1*0901 (Homo sapiens, UniProt P01903+P01911, A100R/A103E/D57H/D86V/F55Y/F60I/F76Y/I96F/K127E/L162R/M171V/P40D/Q125H/Q99R/R33Q/R42F/S133A/S66N/T210M/V115G/W38K/Y107V/Y59G/Y89S)
- Method Notes: biochemical
- Assay type: binding
No end group written: not given here.
Measurement Label: IC50 (µM)
Answers are plain numbers, in µM.

{"columns": ["Macromolecule Sequence", "Unit Label", "IC50"],
 "data": [
  ["QKCFKKKGITVTVQY [Peptide 90.0026]", "µM", 0.639],
  ["SNLLSIPETCMVIEP [Peptide 89.0067]", "µM", 1.31]
]}

Q: Please look at this sequence and report its IC50: AKLMSNLLSIPETCM [Peptide 89.0066]
Result: 9.14

###

- Target Or System: DRB1*1201 (Homo sapiens, UniProt P01903+P01911, A100R/A169T/D57E/D86V/F55L/H45Y/K41T/L162R/M171V/P40S/Q125H/Q178H/Q39Y/Q99D/R42G/S66L/T262R/V114A/V67L/W38E/Y59H/Y61H/Y89S)
- Method Notes: biochemical
Measurement Label: IC50 (nM)
One number for each entry, in nM.

{"columns": ["Compound", "Val"],
 "data": [
  ["CC(C)C[C@H](NC(=O)[C@H](CCC(=O)O)NC(=O)[C@H](CCCCN)NC(=O)[C@H](C)N)C(=O)N[C@@H](CCCCN)C(=O)N[C@@H](Cc1ccccc1)C(=O)N[C@H](C(=O)N[C@H](C(=O)N[C@@H](CC(C)C)C(=O)N[C@H](C(=O)N[C@@H](Cc1ccccc1)C(=O)N[C@@H](CCCNC(=N)N)C(=O)N[C@@H](Cc1c[nH]cn1)C(=O)NCC(=O)N[C@@H](CC(=O)O)C(=O)O)C(C)C)[C@@H](C)O)C(C)C", 693],
  ["CSCC[C@H](NC(=O)[C@@H]1CCCN1C(=O)[C@H](CC(=O)O)NC(=O)[C@@H](N)Cc1ccc(O)cc1)C(=O)N[C@@H](Cc1ccccc1)C(=O)N[C@@H](CCCCN)C(=O)N[C@@H](Cc1ccc(O)cc1)C(=O)N[C@@H](Cc1c[nH]cn1)C(=O)N[C@@H](CC(C)C)C(=O)N[C@H](C(=O)N[C@H](C(=O)N[C@@H](C)C(=O)N[C@@H](CCC(N)=O)C(=O)N[C@H](C(=O)N[C@@H](CCCNC(=N)N)C(=O)O)C(C)C)C(C)C)[C@@H](C)O [Peptide 68.0117]", 240]
]}

Q: Please look at this compound and report its IC50: CC[C@H](C)[C@H](NC(=O)[C@H](Cc1c[nH]c2ccccc12)NC(=O)[C@H](CCCCN)NC(=O)[C@H](CCCNC(=N)N)NC(=O)[C@H](Cc1ccc(O)cc1)NC(=O)[C@H](Cc1c[nH]cn1)NC(=O)[C@@H](NC(=O)[C@@H](NC(=O)[C@H](CCCCN)NC(=O)[C@@H](NC(=O)[C@H](Cc1ccc(O)cc1)NC(=O)[C@H](CC(C)C)NC(=O)[C@H](CO)NC(=O)[C@@H]1CCCN1C(=O)[C@@H](N)CCCNC(=N)N)[C@@H](C)O)C(C)C)C(C)C)C(=O)O [Peptide 68.0082]
Result: 4160

Origin of measurements: patent US9340577B2
